Tested on: SK-MEL-2 melanoma
Test: NCI-60 one-dose screen, 48 h (100 = growth as untreated, 0 = no growth, -100 = all killed)
Settings: 10 µM unless noted
This is part of a sample that, as a whole, favours compounds with a hit. Of some 83,000 tested, about 20% had one in any assay.
Everything with growth lower than 30% is Criterion not met; everything else, including exactly 30%, is Criterion met.

compound: CCNCCNc1cc(C2CCCCC2)c(C#N)c2nc3ccccc3n12
labelValue: Criterion not met
//
compound: Clc1ccc2c(NC3CCC(N4CCOCC4)CC3)ccnc2c1 (centres undefined)
labelValue: Criterion met
//
compound: C=CC[Se]C(=O)Cc1c(C)n(C(=O)c2ccc(Cl)cc2)c2ccc(OC)cc12
labelValue: Criterion not met
//
compound: Cc1ccc2c(Cn3cc(CSc4nc5ccccc5o4)nn3)cc(=O)oc2c1
labelValue: Criterion met
//
compound: Oc1c(Br)cc(Br)c2ccc(Cn3cc(-c4ccc(C(F)(F)F)cc4)nn3)nc12
labelValue: Criterion met
//
compound: COc1ccc(/C=C(\C#N)n2nnc3cc(Cl)ccc32)cc1
labelValue: Criterion not met
//
compound: COc1cc(-c2csc(NC(=O)c3ccc(N4CCOCC4)c(C(F)(F)F)c3)n2)cc(OC)c1OC
labelValue: Criterion not met
//
compound: COC(=O)c1cc(N=C2NC(=O)/C(=C/C=C/c3ccccc3)S2)ccc1O
labelValue: Criterion met
//
compound: Cc1cc(C(=O)Nc2ncc(Cc3cccc(C(F)(F)F)c3)s2)c2ccccc2n1
labelValue: Criterion not met
